Values were extracted from the supplement of paper PMC9112550.

# Test system: Escherichia coli TOP10;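 further: peptides expressed intracellularly from a pBAD plasmid library in pooled LB shake-flask culture, induced with 0.3% L-arabinose, DNA abundance read by NGS, three biological replicates, DESeq2 with apeglm shrinkage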
# TEST: shrunken log2 fold change of peptide-encoding DNA abundance (4.5 h post-induction vs induction); higher = less antimicrobial activity (less host growth inhibition)
# MEASUREMENT_SETUP: time post-induction: 4.5 h; library: site-saturation at positions 5, 18, 19, 20
Give criterion met when the value for shrunken log2 fold change is at least -0.1. Give criterion not met when it is less.

1. RRIRVRPPRLPRPRPRPVVTPRP | criterion met
2. RRIRERPPRLPRPRPRPGEDPRP | criterion met
3. RRIRYRPPRLPRPRPRPLHCPRP | criterion not met
4. RRIRWRPPRLPRPRPRPPGPPRP | criterion met
5. RRIRGRPPRLPRPRPRPCKMPRP | criterion met
6. RRIRGRPPRLPRPRPRPEHWPRP | criterion met
7. RRIRDRPPRLPRPRPRPPDSPRP | criterion met
8. RRIRTRPPRLPRPRPRPEIPPRP | criterion not met
9. RRIRYRPPRLPRPRPRPCTMPRP | criterion not met
10. RRIRWRPPRLPRPRPRPFKQPRP | criterion not met
11. RRIRFRPPRLPRPRPRPCDIPRP | criterion met
12. RRIRNRPPRLPRPRPRPFAIPRP | criterion met
13. RRIRTRPPRLPRPRPRPAVMPRP | criterion met
14. RRIRQRPPRLPRPRPRPAFNPRP | criterion met
15. RRIRERPPRLPRPRPRPTKLPRP | criterion met
16. RRIRDRPPRLPRPRPRPYCYPRP | criterion not met
17. RRIRARPPRLPRPRPRPLPVPRP | criterion met
18. RRIRHRPPRLPRPRPRPANNPRP | criterion not met
19. RRIRFRPPRLPRPRPRPQNDPRP | criterion not met
20. RRIRQRPPRLPRPRPRPHWLPRP | criterion not met
21. RRIRYRPPRLPRPRPRPMYYPRP | criterion not met
22. RRIRTRPPRLPRPRPRPIEIPRP | criterion met
23. RRIRYRPPRLPRPRPRPRNWPRP | criterion met
24. RRIRLRPPRLPRPRPRPNVEPRP | criterion not met
25. RRIRDRPPRLPRPRPRPHSAPRP | criterion met
26. RRIRTRPPRLPRPRPRPSQVPRP | criterion not met
27. RRIRWRPPRLPRPRPRPPIPPRP | criterion met
28. RRIRYRPPRLPRPRPRPRGRPRP | criterion met
29. RRIRCRPPRLPRPRPRPQSEPRP | criterion not met
30. RRIRMRPPRLPRPRPRPDDFPRP | criterion met
31. RRIRVRPPRLPRPRPRPIRLPRP | criterion not met
32. RRIRCRPPRLPRPRPRPYFRPRP | criterion not met
33. RRIRRRPPRLPRPRPRPQQEPRP | criterion met
34. RRIRLRPPRLPRPRPRPMYNPRP | criterion not met
35. RRIRFRPPRLPRPRPRPWEWPRP | criterion met
36. RRIRDRPPRLPRPRPRPEKCPRP | criterion met
37. RRIRIRPPRLPRPRPRPHRNPRP | criterion not met
38. RRIRSRPPRLPRPRPRPALHPRP | criterion met
39. RRIRLRPPRLPRPRPRPWLCPRP | criterion met
40. RRIRWRPPRLPRPRPRPWFQPRP | criterion not met
41. RRIRQRPPRLPRPRPRPPSRPRP | criterion met
42. RRIRGRPPRLPRPRPRPFETPRP | criterion met
43. RRIRERPPRLPRPRPRPPMVPRP | criterion not met
44. RRIRYRPPRLPRPRPRPMSLPRP | criterion met
45. RRIRLRPPRLPRPRPRPSSAPRP | criterion met
46. RRIRVRPPRLPRPRPRPGPEPRP | criterion met
47. RRIRYRPPRLPRPRPRPQFFPRP | criterion met
48. RRIRFRPPRLPRPRPRPHCTPRP | criterion not met
49. RRIRYRPPRLPRPRPRPNIAPRP | criterion not met
50. RRIRHRPPRLPRPRPRPSAHPRP | criterion not met
51. RRIRIRPPRLPRPRPRPTTQPRP | criterion met
52. RRIRCRPPRLPRPRPRPERRPRP | criterion met
53. RRIRVRPPRLPRPRPRPMNDPRP | criterion not met
54. RRIRCRPPRLPRPRPRPYWAPRP | criterion not met
55. RRIRYRPPRLPRPRPRPYAIPRP | criterion met
56. RRIRIRPPRLPRPRPRPCMYPRP | criterion not met
57. RRIRHRPPRLPRPRPRPVQLPRP | criterion met
58. RRIRLRPPRLPRPRPRPRGGPRP | criterion met
59. RRIRIRPPRLPRPRPRPFMPPRP | criterion not met
60. RRIRMRPPRLPRPRPRPRDNPRP | criterion met
